System: B16F10
Method: Growth inhibition test (MTT), cytotoxic action on tumour cell lines
Assay type: cell-based, mouse
Experimental Conditions: mouse, 6 days
Measure Name: pIC50
Friendly reminder that pIC50 comes from taking -log10 of the concentration in mol/L.

{"Molecule": "CCCNC(=O)Nc1cccc(S(=O)(=O)Nc2cccc(C(CC(=O)O)NC(=O)Nc3ccc(NC(=S)N4CCC[C@@H]4C(=O)N[C@@H](CC(C)C)C(=O)NCC(=O)N[C@H](CC(C)C)C(=O)N[C@H](CC(N)=O)C(=O)N[C@@H](C(=O)O[C@@]4(CC)C(=O)OCc5c4cc4n(c5=O)Cc5cc6ccccc6nc5-4)C(C)C)cc3)c2)c1 (single isomer, unassigned) [Example 11]", "pIC50": 6.40}

// query Any idea what its pIC50 is? The molecule is CCCNC(=O)Nc1cccc(S(=O)(=O)Nc2cccc(C(CC(=O)O)NC(=O)Nc3ccc(NC(=S)N4CCC[C@@H]4C(=O)N[C@@H](CC(C)C)C(=O)NCC(=O)N[C@H](CC(C)C)C(=O)N[C@H](CC(N)=O)C(=O)N[C@@H](C(=O)O[C@@]4(CC)C(=O)OCc5c4cc4n(c5=O)Cc5cc6ccccc6nc5-4)C(C)C)cc3)c2)c1 (some centres unmarked) [Example 9]
// result 6.40

// query Item CCCNC(=O)Nc1cccc(S(=O)(=O)Nc2cccc(C(CC(=O)O)NC(=O)Nc3ccc(NC(=S)N4CCC[C@@H]4C(=O)N[C@@H](CC(C)C)C(=O)NCC(=O)N[C@H](CSC)C(=O)N[C@H](Cc4c[nH]cn4)C(=O)N[C@@H](C(=O)O[C@@]4(CC)C(=O)OCc5c4cc4n(c5=O)Cc5cc6ccccc6nc5-4)C(C)C)cc3)c2)c1 (single isomer, unassigned) [Example 25] has what recorded pIC50?
// result 6.60

// query Please report the recorded pIC50 for CCCNC(=O)Nc1cccc(S(=O)(=O)Nc2cccc(C(CC(=O)O)NC(=O)Nc3ccc(NC(=S)N4CCC[C@@H]4C(=O)N[C@@H](CC(C)C)C(=O)NCC(=O)N[C@H](CC(C)C)C(=O)N[C@H](CC(N)=O)C(=O)N[C@@H](C(=O)O[C@@]4(CC)C(=O)OCc5c4cc4n(c5=O)Cc5cc6ccccc6nc5-4)C(C)C)cc3)c2)c1 (single isomer, unassigned) [Example 10] .
// result 6.22

// query Endpoint output: pIC50 of CCCNC(=O)Nc1cccc(S(=O)(=O)Nc2cccc(C(CC(=O)O)NC(=O)Nc3ccc(NC(=S)N4CCC[C@@H]4C(=O)N[C@@H](CC(C)C)C(=O)NCC(=O)N[C@H](CSC)C(=O)N[C@H](Cc4c[nH]cn4)C(=O)N[C@@H](C(=O)O[C@@]4(CC)C(=O)OCc5c4cc4n(c5=O)Cc5cc6ccccc6nc5-4)C(C)C)cc3)c2)c1 (some centres unmarked) [Example 19] . Value?
// result 6.52

// query Could you share which pIC50 value was measured for CCCNC(=O)Nc1cccc(S(=O)(=O)Nc2cccc(C(CC(=O)O)NC(=O)Nc3ccc(NC(=S)N4CCC[C@@H]4C(=O)N[C@@H](CC(C)C)C(=O)NCC(=O)N[C@H](CC(C)C)C(=O)N[C@H](Cc4c[nH]cn4)C(=O)N[C@@H](C(=O)O[C@@]4(CC)C(=O)OCc5c4cc4n(c5=O)Cc5cc6ccccc6nc5-4)C(C)C)cc3)c2)c1 (single isomer, unassigned) [Example 3] ?
// result 6.22

// query If you can, please state the reported pIC50 value of CCCNC(=O)Nc1cccc(S(=O)(=O)Nc2cccc(C(CC(=O)O)NC(=O)Nc3ccc(NC(=S)N4CCC[C@@H]4C(=O)N[C@@H](CC(C)C)C(=O)NCC(=O)N[C@H](CC(C)C)C(=O)N[C@H](Cc4c[nH]cn4)C(=O)N[C@@H](C(=O)O[C@@]4(CC)C(=O)OCc5c4cc4n(c5=O)Cc5cc6ccccc6nc5-4)C(C)C)cc3)c2)c1 (some centres unmarked) [Example 1] .
// result 6.60

// query Any idea what its pIC50 is? The molecule is CCCNC(=O)Nc1cccc(S(=O)(=O)Nc2cccc(C(CC(=O)O)NC(=O)Nc3ccc(NC(=S)N4CCC[C@@H]4C(=O)N[C@@H](CC(C)C)C(=O)NCC(=O)N[C@H](CC(C)C)C(=O)N[C@H](Cc4c[nH]cn4)C(=O)N[C@@H](C(=O)O[C@@]4(CC)C(=O)OCc5c4cc4n(c5=O)Cc5cc6ccccc6nc5-4)C(C)C)cc3)c2)c1 (single isomer, unassigned) [Example 2]
// result 6.30
